The values you see were collected from paper PMC10397247.

target_or_test_system: T1, 4H794-AA
T1 chain: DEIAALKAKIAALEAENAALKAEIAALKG
test_name: two-hybrid library CCmax;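 further: natural log of median RNA to DNA barcode read ratio; higher means stronger binding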
condition_set: mean of both orientations
measured_endpoint: interaction score

binder	interaction score
DKIAALEAEIAALKAKNAALEAKIAALEG [4H2165-AA]	-1.31
DKNAALKAKIAALEAEIAALEAENAALKG [4H3844-AA]	-1.33
DKNAALKAEIAALKAEIAALEAKNAALEG [4H3655-AA]	-1.61
DKNAALEAKIAALEAEIAALKAKNAALEG [4H3343-AA]	-1.33

I. DKNAALEAKIAALKAKIAALEAENAALEG [4H3427-AA]
II. DEIAALEAKIAALEAKNAALKAKIAALEG [4H317-AA]
Query :: Hi there! Just curious which has the higher interaction score between I and II . Respond using the label that marks the chosen record.
Result :: II
(II: 0.104, I: -1.26)
